Data provenance: patent US6737383B1

System: cocklebur
MEASUREMENT_PROTOCOL: Test B pre/postemergence cocklebur
Assay type: in vivo, Xanthium strumarium
TEST_CONTEXT: Rate 62 g/ha, Postemergence; scale 0 to 10 (0 no effect, 10 complete control)
RECORDED_METRIC: Cocklebur plant response rating
Please give only the number in your answer, with no unit.

Which Cocklebur plant response rating reading was recorded for the compound "CCc1cccc(CC)c1-n1c(=O)on(C(=O)N(c2ccc(F)cc2)C(C)C)c1=O" ? 0

Which Cocklebur plant response rating reading was recorded for the compound "CC(C)N(C(=O)n1oc(=O)n(CO)c1=O)c1ccc(Cl)cc1" ? 0

Which Cocklebur plant response rating reading was recorded for the compound "CC(C)N(C(=O)n1oc(=O)n(CCCCF)c1=O)c1ccc(F)cc1" ? 0

Which Cocklebur plant response rating reading was recorded for the compound "CC(C)N(C(=O)n1oc(=O)n(COC(=O)C(C)(C)C)c1=O)c1ccc(F)cc1" ? 0

Which Cocklebur plant response rating reading was recorded for the compound CC(C)N(C(=O)n1oc(=O)n(C2CC3CCC2C3)c1=O)c1ccccc1 (stereo not drawn) ? 0

Which Cocklebur plant response rating reading was recorded for the compound COC(OC)C(C)n1c(=O)on(C(=O)N(c2ccc(F)cc2)C(C)C)c1=O (stereo not drawn) ? 0
